Reported values of viability, T/C for individual entries
- Tested on: 362531-283-R-J2-PDC complex spheroid viability;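 note: spheroids exposed to the agents for 7 days before readout; luminescence viability as percent of DMSO vehicle control wells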
- Assay Protocol: Anticancer human tumor 362531-283-R-J2-PDC patient-derived colon adenocarcinoma cell line growth inhibition [RAS]
- Details: second compound 0.1 µM; first compound 0.003 µM; stronger effect = lower value
Hi! Could you send only the number? It should be in %, unit omitted.

Example entries begin here.
[[record]]
molecule = "CCc1c2c(nc3ccc(O)cc13)-c1cc3c(c(=O)n1C2)COC(=O)[C@]3(O)CC + C=CC(=O)N1CCN(c2nc(OCC3CCCN3C)nc3c(F)c(-c4nc(N)cc(C)c4C(F)(F)F)c(Cl)cc23)C(C)C1"
readout_number = 101

[[record]]
molecule = "CC1(C)CCC(Nc2ncc(C(F)(F)F)c(-c3c[nH]c4c(P(C)(C)=O)c(C#N)ccc34)n2)CN1 (centres undefined) + C=CC(=O)N1CCN(c2nc(OCC3CCCN3C)nc3c(F)c(-c4nc(N)cc(C)c4C(F)(F)F)c(Cl)cc23)C(C)C1"
readout_number = 105

[[record]]
molecule = "CCc1c2c(nc3ccc(O)cc13)-c1cc3c(c(=O)n1C2)COC(=O)[C@]3(O)CC + C#Cc1c(F)ccc2cc(O)cc(-c3ncc4c(N5CC6CCC(C5)N6)nc(OCC56CCCN5CC(F)C6)nc4c3F)c12"
readout_number = 85.8


Please look at the following molecule next.
## Task Checklist item: viability, T/C tested on 362531-283-R-J2-PDC complex spheroid viability, entry CC1(C)CCC(Nc2ncc(C(F)(F)F)c(-c3c[nH]c4c(P(C)(C)=O)c(C#N)ccc34)n2)CN1 (centres undefined) + C#Cc1c(F)ccc2cc(O)cc(-c3ncc4c(N5CC6CCC(C5)N6)nc(OCC56CCCN5CC(F)C6)nc4c3F)c12 , value?;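 note: spheroids exposed to the agents for 7 days before readout; luminescence viability as percent of DMSO vehicle control wells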
## Result 85.5

The origin of these recorded values is PubChem BioAssay AID2060909.
